Assay: Stability in human whole blood assessed as compound remaining measured after 15 mins
Assay type: ADME, tissue-based
Conditions: read-out: Stability
Observed property: remaining at 0.25 h (%)
Answers are plain numbers, in %.

# input Entry O=C(NO)c1ccc(CN(Cc2cccnc2)S(=O)(=O)c2cc(F)c(F)c(F)c2F)cc1 has what remaining at 0.25 h?
# output 88

----------
Test: Stability in human whole blood assessed as compound remaining measured after 60 mins
Type: ADME, tissue-based
Conditions: read-out: Stability
Observed property: remaining at 1 h (%)
One number for each entry, in %.

# input Fill in the blank: the reported remaining at 1 h of O=C(NO)c1ccc(CN(Cc2cccnc2)S(=O)(=O)c2cc(F)c(F)c(F)c2F)cc1 is ____.
# output 68.9
